- Tested on: SF-268 CNS
- protocol.details: NCI-60 one-dose screen, 48 h (100 = growth as untreated, 0 = no growth, -100 = all killed)
- run.conditions: 10 µM unless noted
This is part of a sample that, as a whole, favours compounds with a hit. Of some 83,000 tested, about 20% had one in any assay. The source made the active and inactive calls. How the source made its calls: active means growth percent below 10; inactive means the rest.
Catalogue of growth values

Guide cases for growth, answers given:
| smi | growth |
| --- | --- |
| c1cc(OCCN2CCCCC2)ccc1CNc1ccc2nc(CCC3CCCCC3)[nH]c2c1 | 57.6% (inactive) |
| Cc1ccc(NC(=O)c2cc3ccccc3cc2O)c(C)c1 | 102% (inactive) |
| CSc1ccc2c3c(n(CCCn4ccnc4)c(=O)c2c1)-c1ccccc1C3=O | 31.7% (inactive) |
| COc1ccc(/C=N/NC(=O)Cn2c(-c3ccc(S(C)(=O)=O)cc3)nc3ccccc32)cc1 | 102% (inactive) |

# next compound below
Query: Returns the measured growth for the input compound. Input: O=c1oc2c(cc1-c1ccccc1)c[n+]([O-])c1ccccc21
Reply: 107% (inactive)
